Protein target, amino acids: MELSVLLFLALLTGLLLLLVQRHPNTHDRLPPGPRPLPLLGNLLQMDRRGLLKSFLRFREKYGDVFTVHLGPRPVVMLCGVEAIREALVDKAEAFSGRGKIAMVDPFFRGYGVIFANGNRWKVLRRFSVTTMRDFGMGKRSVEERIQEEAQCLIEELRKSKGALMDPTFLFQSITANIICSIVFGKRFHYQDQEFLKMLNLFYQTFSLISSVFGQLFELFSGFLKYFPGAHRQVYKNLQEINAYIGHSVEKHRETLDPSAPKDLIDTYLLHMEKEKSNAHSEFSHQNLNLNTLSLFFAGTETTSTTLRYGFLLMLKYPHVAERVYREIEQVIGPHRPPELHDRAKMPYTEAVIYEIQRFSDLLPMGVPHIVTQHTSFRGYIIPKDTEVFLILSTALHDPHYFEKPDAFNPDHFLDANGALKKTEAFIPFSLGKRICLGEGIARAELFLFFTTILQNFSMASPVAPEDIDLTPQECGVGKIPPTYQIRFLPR
recordedMetric: pIC50
Keep it numeric: pIC50 is minus log10 of the concentration in mol/L.

Req: Note down pIC50 recorded for CCCCOc1cccc(-c2ccc(-c3cc(C(=O)O)c4cc(F)ccc4n3)cc2)c1
Resp: 4.95

###

# Tested on: Kasumi
# methodNotes: MTS proliferation assay, Kasumi
# Format: cell-based
# conditionContext: Homo sapiens, 96 h, read-out: IC50 (MTS proliferation)
recordedMetric: IC50 (nM)
Quick reminder: number only, in nM, skip the unit.

Req: Report value only: IC50, Kasumi, Cc1c(-c2ccc(-c3ccccc3F)cc2)nc2ccc(F)cc2c1C(=O)O
Resp: 1180

###

# methodNotes: HOSU-53 plasma exposure in MOLM-13 tumor-bearing mice
# Assay type: in vivo, NCG mice
# conditionContext: male, NCG, mouse, plasma, po, 30 mg/kg, Day 1; 30 mpk PO, male mice; per mouse; read-out: HOSU-53 AUCall
recordedMetric: AUC (µM·h)
The answer is to be given in µM·h; state only the numeric part.

Req: Respond only with AUC recorded for CCCCOc1cccc(-c2ccc(-c3cc(C(=O)O)c4cc(F)ccc4n3)cc2)c1 [HOSU-53]
Resp: 4470

###

# systemTested: human DHODH (hDHODH, amino acid residues 31-395) (Homo sapiens, UniProt Q02127)
# Construct: purchased Reaction Biology (assay run there as a service)
# Sequence (Q02127 31-395): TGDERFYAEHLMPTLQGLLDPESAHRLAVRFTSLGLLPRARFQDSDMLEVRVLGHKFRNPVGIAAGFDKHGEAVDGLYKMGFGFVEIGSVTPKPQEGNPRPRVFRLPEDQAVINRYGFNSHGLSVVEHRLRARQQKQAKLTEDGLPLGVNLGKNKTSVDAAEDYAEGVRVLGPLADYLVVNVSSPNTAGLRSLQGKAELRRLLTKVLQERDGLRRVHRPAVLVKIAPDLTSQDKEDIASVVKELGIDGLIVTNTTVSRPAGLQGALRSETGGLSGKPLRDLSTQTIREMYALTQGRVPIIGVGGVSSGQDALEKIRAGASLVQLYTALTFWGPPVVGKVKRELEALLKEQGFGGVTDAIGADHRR
# methodNotes: Cell-free human DHODH enzyme inhibition assay
# Assay type: biochemical
# conditionContext: cell-free multi-species assay, n=1; read-out: DHODH IC50 Human
recordedMetric: pIC50
Remember the convention: pIC50 equals -log10 of concentration in molar.

Req: Give the reported pIC50 for this compound. CCCCOc1cccc(-c2ccc(-c3cc(C(=O)O)c4cc(F)ccc4n3)cc2)c1
Resp: 9.16

###

# methodNotes: Thermodynamic solubility
# Format: physicochemical
# conditionContext: FeSSIF, thermodynamic from solid; heading: Thermodynamic solubility FeSSIF
recordedMetric: solubility thermodynamic (µM)
Write it as a number; the unit µM goes unstated.

Req: Given CCCCOc1cccc(-c2ccc(-c3cc(C(=O)O)c4cc(F)ccc4n3)cc2)c1 , respond with its solubility thermodynamic.
Resp: 373

###

# methodNotes: Single-dose HOSU-53 PK in mice
# Assay type: in vivo, male C57BL/6 mice
# conditionContext: male, C57BL/6, plasma, po; 10 mg/kg p.o. single dose, mouse
recordedMetric: Cmax (µM)
Supply the numeric figure in µM, leaving out any unit text.

Req: Please indicate Cmax recorded for CCCCOc1cccc(-c2ccc(-c3cc(C(=O)O)c4cc(F)ccc4n3)cc2)c1 [HOSU-53]
Resp: 210

###

# systemTested: UniProt:P33261
# Sequence (P33261 whole entry): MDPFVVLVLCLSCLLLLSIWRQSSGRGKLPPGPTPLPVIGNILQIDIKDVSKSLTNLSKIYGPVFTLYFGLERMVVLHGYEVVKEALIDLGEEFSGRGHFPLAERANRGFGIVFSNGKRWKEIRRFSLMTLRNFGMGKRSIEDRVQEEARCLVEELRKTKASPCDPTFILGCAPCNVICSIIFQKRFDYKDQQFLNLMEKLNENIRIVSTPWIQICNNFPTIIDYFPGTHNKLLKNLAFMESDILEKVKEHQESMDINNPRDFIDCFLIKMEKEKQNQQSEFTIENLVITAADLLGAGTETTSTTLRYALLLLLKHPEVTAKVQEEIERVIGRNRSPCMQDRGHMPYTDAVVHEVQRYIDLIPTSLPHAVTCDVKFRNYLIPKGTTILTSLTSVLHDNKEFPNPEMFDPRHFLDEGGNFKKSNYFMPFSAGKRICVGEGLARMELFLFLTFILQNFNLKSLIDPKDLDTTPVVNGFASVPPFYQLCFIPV
# methodNotes: CYP inhibition 2C19
# Assay type: in vitro ADME
recordedMetric: pIC50
Keep in mind that pIC50 stands for -log10 of concentration in molar terms.

Req: Please list pIC50 recorded for the compound CCCCOc1cccc(-c2ccc(-c3cc(C(=O)O)c4cc(F)ccc4n3)cc2)c1
Resp: 4.55

###

# methodNotes: Single-dose HOSU-53 PK in mice
# Type: in vivo, male C57BL/6 mice
# conditionContext: male, C57BL/6, mouse, plasma, oral, 10 mg/kg, 10 mpk PO; 24 h postdose; per mouse
recordedMetric: concentration at 24 h (µM)
State just the number; it will be interpreted in µM.

Req: Please indicate concentration at 24 h recorded for CCCCOc1cccc(-c2ccc(-c3cc(C(=O)O)c4cc(F)ccc4n3)cc2)c1
Resp: 130

###

# methodNotes: Single-dose HOSU-53 PK in mice
# Format: in vivo, male C57BL/6 mice
# conditionContext: male, C57BL/6, plasma, po; 10 mg/kg p.o. single dose, mouse
recordedMetric: half-life
Write the numeric value and append its unit.

Req: Return reported half-life. Input molecule: CCCCOc1cccc(-c2ccc(-c3cc(C(=O)O)c4cc(F)ccc4n3)cc2)c1
Resp: 29 h

###

# methodNotes: Thermodynamic solubility
# Format: physicochemical
# conditionContext: SGF, simulated gastric fluid, thermodynamic from solid; heading: Thermodynamic solubility SGF
recordedMetric: solubility thermodynamic

Req: Give solubility thermodynamic for the following compound: CCCCOc1cccc(-c2ccc(-c3cc(C(=O)O)c4cc(F)ccc4n3)cc2)c1
Resp: < 1.56 µM

###

# System: primary AML samples
# methodNotes: MTS proliferation assay, primary AML samples
# Format: cell-based, human
# conditionContext: Homo sapiens, 96 h, read-out: IC50 [95% CI], Pt. 6, 96-hour treatment
recordedMetric: IC50 (nM)
Only the number, expressed in nM, is required.

Req: Respond only with IC50 recorded for CCCCOc1cccc(-c2ccc(-c3cc(C(=O)O)c4cc(F)ccc4n3)cc2)c1 [HOSU-53]
Resp: 155

###

recordedMetric: IC50 (nM)
Numeric only. Scale: nM

Req: Report the value of IC50 obtained on Rat DHODH (Rattus norvegicus) for CCCCOc1cccc(-c2ccc(-c3cc(C(=O)O)c4cc(F)ccc4n3)cc2)c1 .
Sequence (Q63707 whole entry): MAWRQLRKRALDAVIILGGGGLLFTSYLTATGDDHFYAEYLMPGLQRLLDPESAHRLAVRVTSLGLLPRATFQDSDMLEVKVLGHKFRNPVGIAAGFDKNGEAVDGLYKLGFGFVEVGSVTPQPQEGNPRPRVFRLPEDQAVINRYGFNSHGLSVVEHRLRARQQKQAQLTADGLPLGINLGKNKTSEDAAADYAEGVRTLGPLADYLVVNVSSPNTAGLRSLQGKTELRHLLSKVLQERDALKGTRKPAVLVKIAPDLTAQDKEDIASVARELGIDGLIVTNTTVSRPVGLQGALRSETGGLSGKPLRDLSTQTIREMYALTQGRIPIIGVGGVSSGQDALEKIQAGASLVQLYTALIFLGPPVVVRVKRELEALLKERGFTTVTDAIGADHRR
Resp: 7.65

###

# systemTested: Mouse DHODH (Mus musculus)
# Sequence (O35435 whole entry): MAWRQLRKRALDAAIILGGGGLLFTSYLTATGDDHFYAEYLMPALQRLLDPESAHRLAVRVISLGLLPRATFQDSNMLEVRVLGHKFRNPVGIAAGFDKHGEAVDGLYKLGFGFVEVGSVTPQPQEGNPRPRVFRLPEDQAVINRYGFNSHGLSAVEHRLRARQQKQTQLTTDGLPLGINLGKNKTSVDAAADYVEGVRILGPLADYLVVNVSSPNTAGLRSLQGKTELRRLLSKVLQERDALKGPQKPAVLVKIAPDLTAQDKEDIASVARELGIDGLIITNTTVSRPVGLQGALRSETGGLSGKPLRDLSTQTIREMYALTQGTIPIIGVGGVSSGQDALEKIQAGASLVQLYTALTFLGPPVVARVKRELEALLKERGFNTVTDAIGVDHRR
recordedMetric: IC50
Report field: quantity (unit follows the number).

Req: Tell me IC50 reported for CCCCOc1cccc(-c2ccc(-c3cc(C(=O)O)c4cc(F)ccc4n3)cc2)c1
Resp: 2.1 nM

###

# systemTested: CYP 2D6 (Homo sapiens, UniProt P10635)
# Sequence (P10635 whole entry): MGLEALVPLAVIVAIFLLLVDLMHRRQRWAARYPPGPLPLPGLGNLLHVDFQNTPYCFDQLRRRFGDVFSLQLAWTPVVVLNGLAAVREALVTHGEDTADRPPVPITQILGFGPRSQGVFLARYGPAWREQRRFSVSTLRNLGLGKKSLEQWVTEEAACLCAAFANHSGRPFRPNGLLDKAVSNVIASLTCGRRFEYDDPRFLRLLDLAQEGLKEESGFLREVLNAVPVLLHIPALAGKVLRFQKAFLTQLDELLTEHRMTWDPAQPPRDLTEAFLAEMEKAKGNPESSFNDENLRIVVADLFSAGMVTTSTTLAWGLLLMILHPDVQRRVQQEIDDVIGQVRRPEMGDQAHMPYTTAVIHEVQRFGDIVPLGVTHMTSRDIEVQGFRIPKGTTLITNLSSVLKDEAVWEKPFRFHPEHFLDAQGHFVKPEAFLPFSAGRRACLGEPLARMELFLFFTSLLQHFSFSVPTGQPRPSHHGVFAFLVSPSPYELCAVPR
recordedMetric: IC50 (µM)
Field format: number, assumed µM, no unit text.

Req: Note IC50 for the molecule shown: CCCCOc1cccc(-c2ccc(-c3cc(C(=O)O)c4cc(F)ccc4n3)cc2)c1 [HOSU-53]
Resp: 30.1

###

# methodNotes: LogD
# Type: physicochemical
# conditionContext: pH 7.4
recordedMetric: logD
The answer should be written as a number, with no unit following it.

Req: Indicate its recorded logD; the molecule in question is CCCCOc1cccc(-c2ccc(-c3cc(C(=O)O)c4cc(F)ccc4n3)cc2)c1 [HOSU-53]
Resp: 4.36

###

# methodNotes: HOSU-53 plasma exposure in MOLM-13 tumor-bearing mice
# Type: in vivo, NCG mice
# conditionContext: male, NCG, mouse, plasma, po, 30 mg/kg, Day 14; 30 mpk PO, male mice; per mouse; read-out: HOSU-53 AUCall
# Text: Male 8- to 12-week-old NCG mice were engrafted with 1 × 10^5 cells via tail vein i.v. injection. […] The internal standard was d4-AEA monitored at 352.2 and 66.0 m/z transitions and the target analyte, HOSU-53, was monitored at 416.5 and 331.1 m/z transitions. […] DHO concentration quantification in mouse plasma samples. […]
recordedMetric: AUC (µM·h)
All answers are understood in µM·h, so give the number only.

Req: Output AUC of CCCCOc1cccc(-c2ccc(-c3cc(C(=O)O)c4cc(F)ccc4n3)cc2)c1
Resp: 6660

###

# methodNotes: HOSU-53 plasma exposure in MOLM-13 tumor-bearing mice
# Type: in vivo, NCG mice
# conditionContext: female, NCG, mouse, plasma, po, 10 mg/kg, Day 1; 10 mpk PO, female mice; per mouse; read-out: HOSU-53 AUCall
recordedMetric: AUC (µM·h)
Provide the reading as a plain figure in µM·h.

Req: In one line, give reported AUC of the entry CCCCOc1cccc(-c2ccc(-c3cc(C(=O)O)c4cc(F)ccc4n3)cc2)c1 .
Resp: 2830

###

# methodNotes: Single-dose HOSU-53 PK in mice
# Assay type: in vivo, male C57BL/6 mice
# conditionContext: male, C57BL/6, plasma, oral; p.o. 10 mg/kg vs i.v. 3 mg/kg, mouse; read-out: Bioavailability (F)
recordedMetric: bioavailability
Please format your answer as a value with the unit trailing.

Req: Specify measured bioavailability for CCCCOc1cccc(-c2ccc(-c3cc(C(=O)O)c4cc(F)ccc4n3)cc2)c1 .
Resp: 85%

###

# systemTested: CYP 3A4 (Homo sapiens)
# Sequence (P08684 whole entry): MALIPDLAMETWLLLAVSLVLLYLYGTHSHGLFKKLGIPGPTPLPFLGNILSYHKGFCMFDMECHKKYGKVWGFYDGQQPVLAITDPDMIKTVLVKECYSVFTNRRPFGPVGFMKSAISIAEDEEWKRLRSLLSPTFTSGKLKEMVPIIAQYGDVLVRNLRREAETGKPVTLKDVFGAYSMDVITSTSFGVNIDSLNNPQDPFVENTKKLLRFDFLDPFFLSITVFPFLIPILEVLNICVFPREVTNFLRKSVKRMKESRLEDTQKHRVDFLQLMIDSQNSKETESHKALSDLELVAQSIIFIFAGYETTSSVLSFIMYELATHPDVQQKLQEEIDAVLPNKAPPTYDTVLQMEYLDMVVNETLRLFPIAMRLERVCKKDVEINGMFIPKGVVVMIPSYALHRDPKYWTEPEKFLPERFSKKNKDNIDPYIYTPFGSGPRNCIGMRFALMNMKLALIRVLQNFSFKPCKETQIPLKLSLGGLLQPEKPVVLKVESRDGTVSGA
# methodNotes: CYP inhibition 3A4
# Format: in vitro ADME
# conditionContext: substrate midazolam; read-out: CYP inhibition IC50 3A4 (Midazolam)
recordedMetric: IC50 (µM)
Report as a plain number; the unit µM is understood.

Req: Find the measured IC50 of CCCCOc1cccc(-c2ccc(-c3cc(C(=O)O)c4cc(F)ccc4n3)cc2)c1 with CYP 3A4 (Homo sapiens) as test system.
Resp: 42.6
